Measured pIC50 of individual entries
- STUDY_TARGET: BACE1 (Homo sapiens)
- Construct: GFP
- EXPERIMENT_NOTES: cell-based BACE1 assay (sAPPβ modified ELISA) in SY5Y-BACEGFP-SEAPAPPwt cells
- CONDITIONS: 8-point dose-response (30-0.01 μM)
Value format note: pIC50 is -log10 of concentration (mol/L); just state the number.

Reference set (6 entries):
Need pIC50 of Cc1ccc(S(=O)(=O)Nc2cccc3ccc(C)nc23)cc1 [CU-225] , thanks.
5.42

Need pIC50 of O=S(=O)(Nc1cc(Br)cc2cccnc12)c1cccc2cccnc12 [CU-168] , thanks.
4.77

Need pIC50 of Cc1ccc2cccc(NS(=O)(=O)c3ccc(C(F)(F)F)cc3N)c2n1 [CU-281] , thanks.
5.48

Need pIC50 of O=S(=O)(Nc1cc(Br)cc2cccnc12)c1ccccc1 [CU-166] , thanks.
4.87

Need pIC50 of O=S(=O)(Nc1cccc2cccnc12)c1cccc2ccccc12 [CU-131] , thanks.
5.19

Need pIC50 of COc1ccc(S(=O)(=O)Nc2cccc3cccnc23)cc1 [CU-151] , thanks.
5.23

Next:
Need pIC50 of Nc1cc(C(F)(F)F)ccc1S(=O)(=O)Nc1cccc2cccnc12 [CU-264] , thanks.
6.28

Need pIC50 of COc1ccc(S(=O)(=O)Nc2cccc3cccnc23)c([N+](=O)[O-])c1 [CU-261] , thanks.
5.72

Need pIC50 of Cc1ccc2cccc(NS(=O)(=O)c3ccccc3[N+](=O)[O-])c2n1 [CU-273] , thanks.
4.91

Need pIC50 of COc1cc(NS(=O)(=O)c2ccccc2[N+](=O)[O-])c2ncccc2c1 [CU-268] , thanks.
5.09

----------
- STUDY_TARGET: BACE1 (Homo sapiens, UniProt P56817)
- Construct: GFP
- Sequence (P56817 46-501): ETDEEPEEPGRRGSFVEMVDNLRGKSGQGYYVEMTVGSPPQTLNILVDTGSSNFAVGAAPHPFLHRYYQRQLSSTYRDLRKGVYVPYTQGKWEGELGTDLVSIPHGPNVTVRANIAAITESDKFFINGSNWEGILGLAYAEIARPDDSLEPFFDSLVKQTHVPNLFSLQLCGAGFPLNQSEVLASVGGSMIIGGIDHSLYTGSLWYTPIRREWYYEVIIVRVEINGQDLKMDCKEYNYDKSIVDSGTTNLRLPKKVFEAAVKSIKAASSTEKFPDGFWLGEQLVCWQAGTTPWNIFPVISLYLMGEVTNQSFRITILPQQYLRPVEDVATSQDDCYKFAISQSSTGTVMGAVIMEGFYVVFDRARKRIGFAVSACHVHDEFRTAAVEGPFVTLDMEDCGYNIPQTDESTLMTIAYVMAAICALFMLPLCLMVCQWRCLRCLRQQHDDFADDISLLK
- EXPERIMENT_NOTES: cell-based BACE1 assay (sAPPβ modified ELISA) in SY5Y-BACEGFP-SEAPAPPwt cells
- CONDITIONS: 8-point dose-response (30-0.01 μM)
Measured pIC50 of individual entries
Value format note: pIC50 is -log10 of concentration (mol/L); just state the number.

Reference set (4 entries):
API: value(readout= pIC50, system= BACE1 (Homo sapiens, UniProt P56817), query= "COc1ccc(S(=O)(=O)Nc2cccc3ccc(C)nc23)c(N)c1" )
4.94

API: value(readout= pIC50, system= BACE1 (Homo sapiens, UniProt P56817), query= "Cc1ccc2cccc(NS(=O)(=O)c3ccccc3N)c2n1" )
4.95

API: value(readout= pIC50, system= BACE1 (Homo sapiens, UniProt P56817), query= "O=S(=O)(Nc1cccc2cccnc12)c1ccc2ccccc2c1" )
5.66

API: value(readout= pIC50, system= BACE1 (Homo sapiens, UniProt P56817), query= "COc1cc(NS(=O)(=O)c2cccc3ccccc23)c2ncccc2c1" )
5.44

Next:
API: value(readout= pIC50, system= BACE1 (Homo sapiens, UniProt P56817), query= "Cc1ccc2ccc3c(c2n1)NS(=O)(=O)c1ccc(C(F)(F)F)cc1-3" )
5.95

API: value(readout= pIC50, system= BACE1 (Homo sapiens, UniProt P56817), query= "Cc1ccc2cccc(NS(=O)(=O)c3ccc(C(F)(F)F)cc3[N+](=O)[O-])c2n1" )
5.26

API: value(readout= pIC50, system= BACE1 (Homo sapiens, UniProt P56817), query= "O=[N+]([O-])c1cc(C(F)(F)F)ccc1S(=O)(=O)Nc1cccc2cccnc12" )
5.53

API: value(readout= pIC50, system= BACE1 (Homo sapiens, UniProt P56817), query= "Nc1ccccc1S(=O)(=O)Nc1cccc2cccnc12" )
5.42

API: value(readout= pIC50, system= BACE1 (Homo sapiens, UniProt P56817), query= "O=[N+]([O-])c1ccc(S(=O)(=O)Nc2cccc3cccnc23)cc1" )
5.33

----------
- STUDY_TARGET: BACE1 (Homo sapiens, UniProt P56817)
- Construct: GFP
- EXPERIMENT_NOTES: cell-based BACE1 assay (sAPPβ modified ELISA) in SY5Y-BACEGFP-SEAPAPPwt cells
- CONDITIONS: 8-point dose-response (30-0.01 μM)
READOUT_TYPE: IC50 (µM)
Give the number; µM is assumed, so skip it.

Need IC50 of "COc1ccc(S(=O)(=O)Nc2cccc3cccnc23)c(N)c1" , thanks.
2.74

Continue with the compound presented below.
Need IC50 of "Cc1ccc(S(=O)(=O)Nc2cc(Br)cc3cccnc23)cc1" , thanks.
1.09

----------
- STUDY_TARGET: BACE1 (Homo sapiens, UniProt P56817)
- Construct: GFP
- EXPERIMENT_NOTES: cell-based BACE1 assay (sAPPβ modified ELISA) in SY5Y-BACEGFP-SEAPAPPwt cells
- CONDITIONS: 8-point dose-response (30-0.01 μM)
READOUT_TYPE: pIC50
Value format note: pIC50 is -log10 of concentration (mol/L); just state the number.

Reference set (5 entries):
Need pIC50 of "O=S(=O)(Nc1cccc2cccnc12)c1cccs1" , thanks.
5.10

Need pIC50 of "O=S1(=O)Nc2c(ccc3cccnc23)-c2cc(C(F)(F)F)ccc21" , thanks.
6.09

Need pIC50 of "O=S(=O)(Nc1cc(Br)cc2cccnc12)c1cccc2ccccc12" , thanks.
5.02

Need pIC50 of "O=S(=O)(Nc1cccc2cccnc12)c1cccc2cccnc12" , thanks.
5.37

Need pIC50 of "O=[N+]([O-])c1ccccc1S(=O)(=O)Nc1cccc2cccnc12" , thanks.
5.80

Next:
Need pIC50 of "COc1cc(NS(=O)(=O)c2ccc3ccccc3c2)c2ncccc2c1" , thanks.
5.43
